// endpoint log10(Ki) / system Human muscarinic receptor M3 (Homo sapiens)
Units before log transform: nM; reported quantity: Ki; transform: log10.

Some solved entries appear below for comparison.
# compound, log10(Ki)
data = [
    ("COc1ccc(CC(CO)(C(=O)OC2CC3CCC(C2)N3C)c2ccccc2)cc1 (stereo not drawn)", 2.79),
    ("CN1C2CCC1CC(NC(=O)C(C)(CO)c1ccccc1)C2 (stereo not drawn)", 2.18),
    ("CN1C2CCC1CC(OC(=O)C(F)(CO)c1ccccc1)C2 (stereo not drawn)", 0.46),
    ("CN1C2CCC1CC(OC(=O)C(C)(CF)c1ccccc1)C2 (stereo not drawn)", 1.15),
    ("CN1C2CCC1CC(OC(=O)C(CO)(CC1CC1)c1ccccc1)C2 (stereo not drawn)", 0.11),
]

State its log10(Ki) for this compound: CN1C2CCC1CC(OC(=O)C(CO)(CO)c1ccccc1)C2 (stereo not drawn)
0.61

State its log10(Ki) for this compound: CN1C2CCC1CC(OC(=O)C(C)(CO)c1cccs1)C2 (stereo not drawn)
-0.11

State its log10(Ki) for this compound: COCC(C)(C(=O)OC1CC2CCC(C1)N2C)c1ccccc1 (stereo not drawn)
1.11

State its log10(Ki) for this compound: CN1C2CCC1CC(OC(=O)C(CO)(Cc1ccc(F)cc1)c1ccccc1)C2 (stereo not drawn)
2.49

State its log10(Ki) for this compound: CN1C2CCC1CC(OC(=O)C(C)(CO)c1ccccc1)C2 (stereo not drawn)
0.30

State its log10(Ki) for this compound: CN1C2CCC1CC(OC(=O)C(CO)(CC(F)(F)F)c1ccccc1)C2 (stereo not drawn)
0.30

State its log10(Ki) for this compound: CCC(CO)(C(=O)OC1CC2CCC(C1)N2C)c1ccccc1 (stereo not drawn)
0.11

###

- target-desc: Human muscarinic receptor M2 (Homo sapiens)
- Construct: host or cells: cell membrane homogenates
- Sequence (P08172 1-466): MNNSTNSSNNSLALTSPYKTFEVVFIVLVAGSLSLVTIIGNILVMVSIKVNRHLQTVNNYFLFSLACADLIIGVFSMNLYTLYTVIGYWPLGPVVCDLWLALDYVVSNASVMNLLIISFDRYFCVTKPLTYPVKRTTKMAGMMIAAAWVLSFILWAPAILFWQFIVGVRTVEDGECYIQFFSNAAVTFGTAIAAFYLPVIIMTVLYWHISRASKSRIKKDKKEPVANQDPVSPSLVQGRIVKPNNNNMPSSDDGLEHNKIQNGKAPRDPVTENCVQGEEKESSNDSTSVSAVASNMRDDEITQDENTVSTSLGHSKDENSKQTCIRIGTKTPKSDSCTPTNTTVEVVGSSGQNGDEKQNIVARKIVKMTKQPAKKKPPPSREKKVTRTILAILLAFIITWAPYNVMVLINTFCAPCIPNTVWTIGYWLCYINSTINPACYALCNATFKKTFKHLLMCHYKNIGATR
- assay-procedure: Human muscarinic receptor assay M2, [3H]AF-DX 384 binding
- stated-conditions: 2 nM [3H]AF-DX 384, cell membrane homogenates; read-out: Ki M2
attribute-measured: Ki (nM)
Output spec: scalar in nM, unitless text.

State its Ki for this compound: CN1C2CCC1CC(OC(=O)C(CO)(CC(F)(F)F)c1ccccc1)C2 (stereo not shown)
240

###

- target-desc: Human muscarinic receptor M4 (Homo sapiens, UniProt P08173)
- Construct: host or cells: cell membrane homogenates
- Sequence (P08173 whole entry): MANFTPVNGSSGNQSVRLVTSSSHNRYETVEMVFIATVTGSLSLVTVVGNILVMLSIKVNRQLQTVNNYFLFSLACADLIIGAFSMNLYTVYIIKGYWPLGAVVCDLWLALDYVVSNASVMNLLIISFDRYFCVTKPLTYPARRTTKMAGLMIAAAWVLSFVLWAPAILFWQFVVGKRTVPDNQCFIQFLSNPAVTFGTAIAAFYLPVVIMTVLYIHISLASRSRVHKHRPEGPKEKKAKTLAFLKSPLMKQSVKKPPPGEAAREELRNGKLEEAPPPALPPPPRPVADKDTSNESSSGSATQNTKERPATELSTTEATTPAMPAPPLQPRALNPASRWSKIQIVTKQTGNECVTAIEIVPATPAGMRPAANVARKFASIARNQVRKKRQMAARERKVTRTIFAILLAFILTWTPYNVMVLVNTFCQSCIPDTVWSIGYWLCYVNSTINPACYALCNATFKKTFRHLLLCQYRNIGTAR
- assay-procedure: Human muscarinic receptor assay M4, [3H]4-DAMP binding
Reported values of pKi for individual entries
Notebook: values listed as pKi are -log10 of the concentration (mol/L).

Some solved entries appear below for comparison.
# compound, pKi
measured = [
    ("CN1C2CCC1CC(OC(=O)C(CO)(CC1CC1)c1ccccc1)C2 (centres unmarked)", 9.24),
    ("CN1C2CCC1CC(OC(=O)C(CO)(CO)c1ccccc1)C2 (centres unmarked)", 8.52),
    ("CN1C2CCC1CC(OC(=O)C(CO)(CC(F)(F)F)c1ccccc1)C2 (centres unmarked)", 8.77),
]

Provide pKi, system Human muscarinic receptor M4 (Homo sapiens, UniProt P08173), entry CN1C2CCC1CC(OC(=O)C(CO)(Cc1ccc(F)cc1)c1ccccc1)C2 (centres unmarked)
6.70

Provide pKi, system Human muscarinic receptor M4 (Homo sapiens, UniProt P08173), entry CN1C2CCC1CC(OC(=O)C(C)(CO)c1ccccc1)C2 (centres unmarked)
9.24

Provide pKi, system Human muscarinic receptor M4 (Homo sapiens, UniProt P08173), entry CN1C2CCC1CC(OC(=O)C(F)(CO)c1ccccc1)C2 (centres unmarked)
9.32
